Provenance of the data: patent US20080058356A1

property.label: melting point

molecule Nc1cc(-c2cccnc2)nc(-c2ccco2)n1 , melting point observed: 232.7 to 233.1 °C

Please give melting point, item by item, for the list that follows.
1. NCCNc1cc(-n2cccn2)nc(-c2ccco2)n1
2. NCCNc1cc(-n2cccn2)nc(-c2cccs2)n1
3. COc1ccc(CCNc2cc(-n3cccn3)nc(-c3cccs3)n2)cc1OC
4. COc1ccc(CCNc2cc(-c3ccco3)nc(-c3nccs3)n2)cc1OC
5. Nc1cc(-n2cccn2)nc(-c2ccc(Cl)o2)n1

(A)
1. 104.1 to 105.1 °C
2. 146.6 to 147.1 °C
3. 116.2 to 117.3 °C
4. 83 to 83.8 °C
5. 209.9 to 211 °C

---

Kindly supply the reported melting point values for the records listed here.

For this compound ( CCC(=O)Nc1cc(-n2cccn2)nc(-c2ccc(Cl)o2)n1 [Example 51] ), measured melting point is 189.3 to 190.1 °C

// melting point lookup, compound = CCC(=O)Nc1cc(-c2cccnc2)nc(-c2ccco2)n1 [Example 54] , result: 251.8 to 253.2 °C

Noted for c1ccc(CCNc2cc(-n3cccn3)nc(-c3ccco3)n2)nc1 [Example 125] : its melting point reads 110.2 to 110.9 °C

Sure, the documented melting point for COc1ccc(COC(=O)Nc2cc(-n3cccn3)nc(-c3ccco3)n2)cc1OC [Example 202] is 147.8 to 148.5 °C

Entry OCCCNc1cc(-n2cccn2)nc(-c2cccs2)n1 [Example 131] , melting point reported as 129.9 to 130.8 °C

# map each compound to its melting point
1. c1coc(-c2nc(NCC3CC3)cc(-n3cccn3)n2)c1 [Example 119]
2. c1ccc([C@H]2C[C@@H]2Nc2cc(-c3ccco3)nc(-c3nccs3)n2)cc1 (relative stereo) [Example 198]

(A)
100.9 to 101.7 °C
90 to 91.9 °C
